target: Free fatty acid receptor 1 (Homo sapiens, UniProt O14842); experiment: Agonist activity at human GPR40 expressed in CHO cells after 24 hrs by NFAT-luciferase reporter gene assay
Sequence (O14842 whole entry): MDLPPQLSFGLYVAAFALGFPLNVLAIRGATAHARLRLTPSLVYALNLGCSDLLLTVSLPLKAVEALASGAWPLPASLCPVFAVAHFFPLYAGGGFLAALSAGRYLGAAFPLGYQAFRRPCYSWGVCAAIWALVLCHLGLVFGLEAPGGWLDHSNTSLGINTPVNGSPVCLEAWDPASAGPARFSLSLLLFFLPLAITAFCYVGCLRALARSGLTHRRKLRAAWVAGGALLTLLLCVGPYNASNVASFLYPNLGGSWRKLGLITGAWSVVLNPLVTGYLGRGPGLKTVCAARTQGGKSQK
Would you mind telling me the reported EC50 of each entry?
Quick note: give the figure in nM, leave out the unit.

Output measured EC50 for this item: O=C(O)CCc1ccc2[nH]c(-c3ccccc3OC(F)(F)F)cc2c1
1020

Output measured EC50 for this item: CCc1ccccc1-c1cc2cc(CCC(=O)O)ccc2[nH]1
1800

Output measured EC50 for this item: Cc1ccccc1-c1cc2cc(CCC(=O)O)ccc2[nH]1
447

Output measured EC50 for this item: O=C(O)CCc1ccc2[nH]c(-c3cccc(Cl)c3)cc2c1
37.8

Output measured EC50 for this item: O=C(O)CCc1ccc2[nH]c(-c3cccc(Br)c3)cc2c1
1800

====

target: Free fatty acid receptor 1 (Homo sapiens, UniProt O14842); assay: Agonist activity at human GPR40 expressed in CHO cells after 24 hrs by NFAT-luciferase reporter gene assay
Quick rule for you: EC50 under 0.8 µM gets Satisfied, anything else gets Not satisfied.

Threshold test, EC50 < 0.8 µM: O=C(O)CCc1ccc(NCc2cccc(Oc3ccccc3)c2)cc1
Satisfied

Threshold test, EC50 < 0.8 µM: Cc1ncccc1-c1cc2cc(CCC(=O)O)ccc2[nH]1
Not satisfied

Threshold test, EC50 < 0.8 µM: COc1cccc(-c2cc3cc(CCC(=O)O)ccc3[nH]2)c1
Not satisfied

Threshold test, EC50 < 0.8 µM: Cn1c(-c2ccc(Cl)cc2)cc2cc(CCC(=O)O)ccc21
Not satisfied

Threshold test, EC50 < 0.8 µM: O=C(O)CCc1ccc2[nH]c(-c3ccccc3Br)cc2c1
Satisfied

Threshold test, EC50 < 0.8 µM: CC(C)c1ccccc1-c1cc2cc(CCC(=O)O)ccc2[nH]1
Not satisfied

Threshold test, EC50 < 0.8 µM: O=C(O)CCc1ccc2[nH]c(-c3ccccc3C(F)(F)F)cc2c1
Not satisfied

Threshold test, EC50 < 0.8 µM: Cc1cccc(-c2cc3cc(CCC(=O)O)ccc3[nH]2)c1
Not satisfied

Threshold test, EC50 < 0.8 µM: O=C(O)CCc1ccc2[nH]c(-c3ccccc3F)cc2c1
Not satisfied

====

Would you mind telling me the reported EC50 of each entry?
target: Peroxisome proliferator-activated receptor gamma (Homo sapiens, UniProt P37231); experiment: Transactivation of human PPARgamma expressed in CHO cells after 24 hrs by luciferase reporter gene assay
Sequence (P37231 whole entry): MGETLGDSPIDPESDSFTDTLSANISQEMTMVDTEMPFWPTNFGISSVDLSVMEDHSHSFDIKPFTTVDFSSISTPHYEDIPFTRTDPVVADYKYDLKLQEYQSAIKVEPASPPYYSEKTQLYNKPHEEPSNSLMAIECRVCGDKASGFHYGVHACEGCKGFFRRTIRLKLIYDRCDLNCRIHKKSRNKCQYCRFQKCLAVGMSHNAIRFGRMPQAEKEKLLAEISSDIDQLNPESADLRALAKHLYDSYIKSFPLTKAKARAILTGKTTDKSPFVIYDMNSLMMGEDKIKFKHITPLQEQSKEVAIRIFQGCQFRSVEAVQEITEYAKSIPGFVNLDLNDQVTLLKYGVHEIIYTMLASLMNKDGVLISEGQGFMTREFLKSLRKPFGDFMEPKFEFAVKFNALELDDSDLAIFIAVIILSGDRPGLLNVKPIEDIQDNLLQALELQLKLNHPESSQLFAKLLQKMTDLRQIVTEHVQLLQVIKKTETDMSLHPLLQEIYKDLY
Express your answer as a number followed by its unit.

Output measured EC50 for this item: Cc1ncccc1-c1cc2cc(CCC(=O)O)ccc2[nH]1
56.9 µM

Output measured EC50 for this item: O=C(O)CCc1ccc2[nH]c(-c3cccc(Cl)c3)cc2c1
2.4 µM

Output measured EC50 for this item: O=C(O)CCc1ccc2[nH]c(-c3cccc(Br)c3)cc2c1
236 µM

====

target: Peroxisome proliferator-activated receptor gamma (Homo sapiens) (UniProt P37231); test: Transactivation of human PPARgamma expressed in CHO cells at 10 uM after 24 hrs by luciferase reporter gene assay relative to rosiglitazone; format: cell-based
Sequence (P37231 whole entry): as the sequence (P37231 whole entry) above
Would you mind telling me the reported Activity of each entry?
Quick note: give the figure in %, leave out the unit.

Output measured Activity for this item: CC(C)c1ccccc1-c1cc2cc(CCC(=O)O)ccc2[nH]1
2

Output measured Activity for this item: O=C(O)CCc1ccc2[nH]c(-c3ccccc3Cl)cc2c1
1

Output measured Activity for this item: COc1cccc(-c2cc3cc(CCC(=O)O)ccc3[nH]2)c1
5

Output measured Activity for this item: CCc1ccccc1-c1cc2cc(CCC(=O)O)ccc2[nH]1
7

Output measured Activity for this item: Cc1ccccc1-c1cc2cc(CCC(=O)O)ccc2[nH]1
4

Output measured Activity for this item: COc1ccccc1-c1cc2cc(CCC(=O)O)ccc2[nH]1
0

Output measured Activity for this item: O=C(O)CCc1ccc2[nH]c(-c3ccccc3F)cc2c1
3

====

target: Peroxisome proliferator-activated receptor gamma (Homo sapiens) (UniProt P37231); assay: Transactivation of human PPARgamma expressed in CHO cells at 10 uM after 24 hrs by luciferase reporter gene assay relative to rosiglitazone; type: cell-based
measurement.kind: Activity (%)
Quick note: give the figure in %, leave out the unit.

Output measured Activity for this item: O=C(O)CCc1ccc2[nH]c(-c3cccc(Br)c3)cc2c1
56

Output measured Activity for this item: O=C(O)CCc1ccc2[nH]c(-c3ccc(Cl)cc3)cc2c1
1

Output measured Activity for this item: COc1ccc(-c2cc3cc(CCC(=O)O)ccc3[nH]2)cc1
5

Output measured Activity for this item: O=C(O)CCc1ccc2[nH]c(-c3cccc(Cl)c3)cc2c1
101

Output measured Activity for this item: Cc1cccc(-c2cc3cc(CCC(=O)O)ccc3[nH]2)c1
8

Output measured Activity for this item: O=C(O)CCc1ccc2[nH]c(-c3ccccc3OC(F)(F)F)cc2c1
2

Output measured Activity for this item: Cc1ncccc1-c1cc2cc(CCC(=O)O)ccc2[nH]1
64

Output measured Activity for this item: O=C(O)CCc1ccc2[nH]c(-c3ccccc3)cc2c1
14

Output measured Activity for this item: O=C(O)CCc1ccc2[nH]c(-c3ccccc3Br)cc2c1
4

Output measured Activity for this item: Cc1ccc(-c2cc3cc(CCC(=O)O)ccc3[nH]2)cc1
4

Output measured Activity for this item: O=C(O)CCc1ccc2[nH]c(-c3ccccc3C(F)(F)F)cc2c1
8

====

molecular target: Free fatty acid receptor 1 (Mus musculus) (UniProt Q76JU9); assay: Agonist activity at GPR40 in mouse MIN6 cells assessed as increase in 17 mM glucose-stimulated insulin secretion at 1 and 10 uM after 2 hrs by ELISA relative to glucose; type: functional, cell-based
Sequence (Q76JU9 whole entry): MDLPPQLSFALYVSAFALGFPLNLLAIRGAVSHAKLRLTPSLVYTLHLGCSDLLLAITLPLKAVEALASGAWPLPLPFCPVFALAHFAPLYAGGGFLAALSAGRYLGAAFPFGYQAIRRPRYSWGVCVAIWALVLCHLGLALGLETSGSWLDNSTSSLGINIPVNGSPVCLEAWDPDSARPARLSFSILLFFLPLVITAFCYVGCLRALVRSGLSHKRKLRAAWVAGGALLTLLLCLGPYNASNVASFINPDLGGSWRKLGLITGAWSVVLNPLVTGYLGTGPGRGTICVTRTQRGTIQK
measurement.kind: fold change (FC)

Output measured fold change (FC) for this item: Cc1cc(OCCCS(C)(=O)=O)cc(C)c1-c1cccc(COc2ccc3c(c2)OC[C@H]3CC(=O)O)c1
1.7

Output measured fold change (FC) for this item: O=C(O)CCc1ccc2[nH]c(-c3ccccc3Br)cc2c1
1.6

Output measured fold change (FC) for this item: O=C(O)CCc1ccc2[nH]c(-c3ccccc3Cl)cc2c1
1.4

Output measured fold change (FC) for this item: O=C(O)CCc1ccc2[nH]c(-c3cccc(Cl)c3)cc2c1
1.7

====

molecular target: Free fatty acid receptor 1 (Homo sapiens); experiment: Agonist activity at human GPR40 expressed in CHO cells after 24 hrs by NFAT-luciferase reporter gene assay
Would you mind telling me the reported EC50 of each entry?

Output measured EC50 for this item: Cn1c(-c2ccccc2Br)cc2cc(CCC(=O)O)ccc21
> 10 µM

Output measured EC50 for this item: O=C(O)CCc1ccc2[nH]c(-c3ccccc3)cc2c1
> 25 µM

Output measured EC50 for this item: Cc1ccc(-c2cc3cc(CCC(=O)O)ccc3[nH]2)cc1
> 25 µM

Output measured EC50 for this item: COc1ccccc1-c1cc2cc(CCC(=O)O)ccc2[nH]1
> 25 µM

Output measured EC50 for this item: Cn1c(-c2cccc(Cl)c2)cc2cc(CCC(=O)O)ccc21
> 10 µM

Output measured EC50 for this item: COc1ccc(-c2cc3cc(CCC(=O)O)ccc3[nH]2)cc1
> 25 µM

Where do the numbers come from? From ChEMBL document CHEMBL4138261.
